Tgt: human O-GlcNAcase (Homo sapiens (Human), UniProt O60502)
Sequence (O60502 whole entry): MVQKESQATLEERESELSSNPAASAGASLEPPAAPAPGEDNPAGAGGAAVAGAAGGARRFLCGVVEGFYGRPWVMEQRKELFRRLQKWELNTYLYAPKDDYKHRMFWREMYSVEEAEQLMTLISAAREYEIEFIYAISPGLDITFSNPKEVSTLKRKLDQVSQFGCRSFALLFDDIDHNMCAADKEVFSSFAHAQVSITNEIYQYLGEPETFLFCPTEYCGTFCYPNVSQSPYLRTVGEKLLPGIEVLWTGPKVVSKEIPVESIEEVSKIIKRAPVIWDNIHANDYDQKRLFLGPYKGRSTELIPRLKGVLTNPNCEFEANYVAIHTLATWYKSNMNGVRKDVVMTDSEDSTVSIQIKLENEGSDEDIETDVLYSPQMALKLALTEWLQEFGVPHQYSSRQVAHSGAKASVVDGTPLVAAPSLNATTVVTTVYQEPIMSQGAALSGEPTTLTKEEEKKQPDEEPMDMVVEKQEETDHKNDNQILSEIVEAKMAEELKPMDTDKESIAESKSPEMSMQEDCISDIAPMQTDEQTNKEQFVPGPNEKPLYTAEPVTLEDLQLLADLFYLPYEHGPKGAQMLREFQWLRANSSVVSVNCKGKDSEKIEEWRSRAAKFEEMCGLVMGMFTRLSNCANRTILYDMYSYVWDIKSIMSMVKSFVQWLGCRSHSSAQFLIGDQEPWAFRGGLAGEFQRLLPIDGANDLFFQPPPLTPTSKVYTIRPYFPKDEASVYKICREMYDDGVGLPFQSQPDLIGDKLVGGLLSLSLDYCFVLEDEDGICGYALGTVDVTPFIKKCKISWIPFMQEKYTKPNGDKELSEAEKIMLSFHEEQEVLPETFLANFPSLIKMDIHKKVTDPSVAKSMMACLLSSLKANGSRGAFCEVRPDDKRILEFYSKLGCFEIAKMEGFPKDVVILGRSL
Assay readout: Ki (nM)

- Smi: "CNC1=N[C@@H]2[C@@H](O)[C@H](O)[C@@H](C(F)F)C[C@@H]2O1"
  Result units: "nM"
  Ki: 1.4
- Smi: "O[C@@H]1[C@@H](CF)C[C@@H]2OC(N3CCC3)=N[C@@H]2[C@H]1O"
  Result units: "nM"
  Ki: 1.1

----------
Test: Assay for determination of apparent permeability (Papp) in LLC-PK1 cells
Type: in vitro ADME
Condition notes: pig, t=3 h, average of A to B and B to A
Assay readout: Papp at 3 h, 1 μM (×10⁻⁶ cm/s)

- Smi: "O[C@H]1[C@@H](F)[C@H]2N=C(N3CCC3)O[C@H]2C[C@@H]1C(F)F"
  Assay readout: "Papp at 3 h, 1 μM"
  Measured number: 6.5
- Smi: "O[C@@H]1[C@@H](CF)C[C@@H]2OC(N3CCC3)=N[C@@H]2[C@H]1O"
  Assay readout: "Papp at 3 h, 1 μM"
  Measured number: 5.1
- Smi: "CNC1=N[C@@H]2[C@H](F)[C@H](O)[C@@H](CO)C[C@@H]2O1"
  Assay readout: "Papp at 3 h, 1 μM"
  Measured number: 2.2
- Smi: "O[C@H]1[C@H](O)[C@@H](C(F)F)C[C@@H]2OC(N3CCC3)=N[C@H]12"
  Assay readout: "Papp at 3 h, 1 μM"
  Measured number: 2.8

(a) CNC1=N[C@@H]2[C@@H](O)[C@H](O)[C@@H](C(F)F)C[C@@H]2O1
(b) CNC1=N[C@@H]2[C@@H](O)[C@H](O)[C@@H](CF)C[C@@H]2O1
[ask] Out of a and b , name the one with the higher Papp at 3 h, 1 μM. # respond with the chosen item's label
[reply] b

----------
Tgt: O-GlcNAcase (Rattus norvegicus (Rat))
Sequence (Q8VIJ5 whole entry): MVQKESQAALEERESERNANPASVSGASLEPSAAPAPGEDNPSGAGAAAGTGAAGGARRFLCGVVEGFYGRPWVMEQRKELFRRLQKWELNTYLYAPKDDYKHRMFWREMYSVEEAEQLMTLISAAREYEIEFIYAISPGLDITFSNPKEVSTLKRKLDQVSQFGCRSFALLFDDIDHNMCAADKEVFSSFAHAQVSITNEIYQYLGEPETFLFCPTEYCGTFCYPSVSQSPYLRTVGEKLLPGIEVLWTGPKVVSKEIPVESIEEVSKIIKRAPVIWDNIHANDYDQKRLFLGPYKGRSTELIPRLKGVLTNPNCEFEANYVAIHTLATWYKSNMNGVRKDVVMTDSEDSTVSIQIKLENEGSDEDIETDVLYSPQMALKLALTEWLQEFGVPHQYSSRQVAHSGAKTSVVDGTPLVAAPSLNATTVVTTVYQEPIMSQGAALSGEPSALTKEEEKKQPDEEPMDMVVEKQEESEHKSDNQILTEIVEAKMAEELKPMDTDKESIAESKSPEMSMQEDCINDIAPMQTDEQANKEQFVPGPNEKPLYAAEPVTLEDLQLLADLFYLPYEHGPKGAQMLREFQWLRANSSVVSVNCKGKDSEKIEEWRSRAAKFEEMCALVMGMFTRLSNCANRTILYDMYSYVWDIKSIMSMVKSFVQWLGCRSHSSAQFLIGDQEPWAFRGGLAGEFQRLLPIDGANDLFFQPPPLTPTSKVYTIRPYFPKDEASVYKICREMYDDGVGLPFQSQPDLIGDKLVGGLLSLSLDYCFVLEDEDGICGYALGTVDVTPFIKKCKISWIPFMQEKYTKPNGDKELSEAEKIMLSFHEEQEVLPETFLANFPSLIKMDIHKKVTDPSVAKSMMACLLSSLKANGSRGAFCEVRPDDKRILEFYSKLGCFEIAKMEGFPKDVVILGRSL
Test: Cell-based ELISA for cellular activity of O-GlcNAcase inhibitors (O-GlcNAcylated protein, RL-2 antibody)
Condition notes: rat PC-12 cells, 24 h treatment, O-GlcNAcylated protein by RL-2 ELISA
pEC50: −log10 of the molar value.
Assay readout: pEC50

- Smi: "O[C@H]1[C@H](O)[C@@H](C(F)F)C[C@@H]2OC(N3CCC3)=N[C@H]12"
  pEC50: 8.29
- Smi: "O[C@@H]1[C@@H](CF)C[C@@H]2OC(N3CCC3)=N[C@@H]2[C@H]1O"
  pEC50: 8.28
- Smi: "CNC1=N[C@@H]2[C@@H](O)[C@H](O)[C@@H](C(F)F)C[C@@H]2O1"
  pEC50: 8.33
